Below: a set of entries, each annotated with reported pIC50.
biological target: Delta-type opioid receptor (Homo sapiens); test: Displacement of [3H]DPDPE from human delta opioid receptor expressed in HN9.10 cells
Sequence (P41143 whole entry): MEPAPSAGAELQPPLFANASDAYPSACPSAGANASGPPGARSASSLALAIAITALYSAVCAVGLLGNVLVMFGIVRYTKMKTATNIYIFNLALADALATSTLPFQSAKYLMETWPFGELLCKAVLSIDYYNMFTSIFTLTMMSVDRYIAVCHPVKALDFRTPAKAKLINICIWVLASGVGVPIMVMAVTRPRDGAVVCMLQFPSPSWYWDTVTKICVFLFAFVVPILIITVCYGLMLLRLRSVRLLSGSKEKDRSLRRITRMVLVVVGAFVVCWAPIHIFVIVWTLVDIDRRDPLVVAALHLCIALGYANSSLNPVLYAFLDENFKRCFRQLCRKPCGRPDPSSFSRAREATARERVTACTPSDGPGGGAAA
Note: pIC50 values are expressed as the negative base-10 logarithm of concentration in M.

Here are 4 compounds together with their reported answers.
INSERT INTO results (mol, numeric_result) VALUES
  ('CCCC[C@@H](NC(=O)[C@@H](N)Cc1ccc(O)cc1)C(=O)NCC(=O)N[C@H](Cc1c[nH]c2ccccc12)C(=O)N(C)[C@@H](CCCC)C(=O)N[C@@H](CC(=O)O)C(=O)N[C@@H](Cc1ccccc1)C(N)=O', 6.14),
  ('CCCC[C@@H](C(=O)N[C@@H](CC(=O)O)C(=O)N[C@@H](Cc1ccccc1)C(N)=O)N(C)C(=O)[C@H](Cc1c[nH]c2ccccc12)NC(=O)CNC(=O)[C@@H](C)NC(=O)[C@@H](N)Cc1ccc(O)cc1', 8.28),
  ('CCCC[C@H](NC(=O)[C@H](Cc1c[nH]c2ccccc12)NC(=O)CNC(=O)[C@@H](C)NC(=O)[C@@H](N)Cc1ccc(O)cc1)C(=O)N[C@@H](CC(=O)O)C(=O)N[C@@H](Cc1ccccc1)C(N)=O', 9.28),
  ('CCCC[C@H](NC(=O)[C@H](Cc1c[nH]c2ccccc12)NC(=O)CNC(=O)[C@@H](CCCC)NC(=O)[C@@H](N)Cc1ccc(O)cc1)C(=O)N[C@@H](CC(=O)O)C(=O)N[C@@H](Cc1ccccc1)C(N)=O', 8.22);

Pending compound:
pIC50 reported for this compound CCCC[C@H](NC(=O)[C@@H](Cc1c[nH]c2ccccc12)NC(=O)CNC(=O)[C@@H](Cc1ccccc1)NC(=O)[C@@H](N)Cc1ccc(O)cc1)C(=O)N[C@@H](CC(=O)O)C(=O)N[C@@H](Cc1ccccc1)C(N)=O : 6.40
